organism: Rattus norvegicus; experiment: Inhibition of carnitine-dependent oxidation of [1-14C]palmitate to 14CO2 in rat liver mitochondria was measured in vitro at 2*10e-3 mM concentration; type: functional
Classification field: Y = inhibition at or over 60%; N = inhibition under 60%.

{"molecule": "CCOC(=O)CC(N)C[N+](C)(C)C (stereo unspecified)", "classAssignment": "N"}
{"molecule": "CCCCCCCCCCCCCC(=O)NC(CC(=O)[O-])C[N+](C)(C)C (stereo unspecified)", "classAssignment": "Y"}
{"molecule": "CCCCCCCCCCCCCCCC(=O)NC(CC(=O)[O-])C[N+](C)(C)C (stereo unspecified)", "classAssignment": "Y"}
{"molecule": "C[N+](C)(C)CC(N)CC(N)=O (stereo unspecified)", "classAssignment": "N"}
{"molecule": "COC(=O)CC(N)C[N+](C)(C)C (stereo unspecified)", "classAssignment": "N"}
